Data origin, for the record: patent US20250296909A1

Tested on: spleen T cells
Experiment: T cell proliferation inhibition (CFSE, FACS), CD3/CD28-activated spleen T cells
Type: cell-based, C57BL/6 mice
Conditions: Mus musculus, T-cell; Table 3 (compounds not belonging to Formula 1); 50 μM; read-out: Proliferation inhibition rate (%)

- Molecule: "CCCCNC(=O)c1ccccc1F"
  System Name: "spleen T cells"
  inhibition at 50 µM [%]: 22
- Molecule: "O=C(Nc1ccccc1)c1ccncc1Br"
  System Name: "spleen T cells"
  inhibition at 50 µM [%]: 7
- Molecule: "O=C(NCCCc1ccccc1)c1ccccc1Br"
  System Name: "spleen T cells"
  inhibition at 50 µM [%]: 16
- Molecule: "O=C(Nc1ccccc1Br)c1ccccc1Br"
  System Name: "spleen T cells"
  inhibition at 50 µM [%]: 0
- Molecule: "Cc1ccccc1NC(=O)c1ccccc1F"
  System Name: "spleen T cells"
  inhibition at 50 µM [%]: 18
- Molecule: "Cc1ccccc1NC(=O)c1ccccc1Br"
  System Name: "spleen T cells"
  inhibition at 50 µM [%]: 11
- Molecule: "CCCCCCCCCNC(=O)/C=C/c1ccccc1Br"
  System Name: "spleen T cells"
  inhibition at 50 µM [%]: 3
